Record set of Ki for target or system hCA IX (Homo sapiens, UniProt Q16790).
outcomeMeasure: Ki (nM)

[P] Cc1ccc(/C=C(\C#N)c2nc(N)nc(Nc3ccc(S(N)(=O)=O)cc3)n2)cc1 [Compound 12g]
[Q] N#C/C(=C\c1cccc(Cl)c1)c1nc(N)nc(Nc2ccc(S(N)(=O)=O)cc2)n1 [Compound 12h]
[R] COc1ccc(/C=C(\C#N)c2nc(N)nc(Nc3ccc(S(N)(=O)=O)cc3)n2)cc1 [Compound 12c]
Sort the listed compounds above so the one with the largest Ki comes first and the smallest comes last. Hello, could you send the labels back in the order asked? Thank you. R, P, Q
(R: 1390 nM, P: 195 nM, Q: 52.2 nM)
